For each record, write down the corresponding Growth Rate.
System: U2OS
Assay: Incucyte cell viability with U2OS; also: unitless GR value; below 1 slowed growth and below 0 cell loss
Format: toxicity, cell-based
Conditions: human, 24 h, 10 µM, compound concentration 10 uM, replicate number 2

I would be grateful if you could provide Growth Rate for each of the following entries.
1. CC[N+](CC)(CC)CCOc1ccc(/C=C/c2ccccc2)cc1.[I-] [STILONIUM IODIDE]
2. CCn1c(-c2nonc2N)nc2c(C#CC(C)(C)O)ncc(OCC3CCCNC3)c21 (centres undefined)
3. Cc1ccc(NS(=O)(=O)c2ccc3c(c2)C2C=CCC2C(c2ccc(C(=O)O)cc2)N3)cc1C (centres undefined)
4. COc1ccc(CCN(C)CCCC(C#N)(c2cc(OC)c(OC)c(OC)c2)C(C)C)cc1OC.Cl (centres undefined) [GALLOPAMIL HYDROCHLORIDE]
5. O=C1Nc2nc(-c3c(O)cccc3OCC3CC3)cc([C@@H]3CCCNC3)c2CO1
6. COc1cc(C(=O)NC2CCN(C)CC2)ccc1Nc1ncc2c(n1)N(C1CCCC1)CC(F)(F)C(=O)N2C
7. CC(C)[C@@H]1CC[C@@H](C)C[C@@H]1P(=O)(c1ccccc1)c1ccccc1

Reply:
1. 0.84
2. 0.9
3. 0.91
4. 1
5. 0.98
6. -0.03
7. 1

I would be grateful if you could provide Growth Rate for each of the following entries.
1. O=C(Nc1ccccc1Cl)c1cnc2ccc(C3CCNCC3)cn12.O=C(O)C(=O)O
2. N#Cc1ccnc(Nc2cc(C3CCN(C4COC4)CC3)cc(N3CCC(F)(F)C3)n2)c1

Reply:
1: 0.59; 2: 0.44

I would be grateful if you could provide Growth Rate for each of the following entries.
1. N#C/C(=C\c1ccc(O)c(O)c1)C(=O)OCCc1cccs1
2. COc1ccc(CSc2nnc(-c3ccc4ncsc4c3)o2)cc1C(F)(F)F
3. Oc1cccc(Nc2ccnc3[nH]c4ccccc4c23)c1

Reply:
1: 0.93; 2: 0.95; 3: 0.63

====

System: U2OS
Experiment: Incucyte cell viability with U2OS; also: unitless GR value; below 1 slowed growth and below 0 cell loss
Assay type: toxicity, cell-based
Conditions: human, 18 h, 10 µM, compound concentration 10 uM, replicate number 1
Binary call on Growth Rate: Y from 0.8 upward, N beneath that.

Completed entries (count: 3):
| compound | targetOrTestSystem | className |
| --- | --- | --- |
| CCS(=O)(=O)Nc1cccc(Oc2cncc(Nc3ccc(I)cc3F)c2C(N)=O)c1 | U2OS | Y |
| Cn1nccc1-c1ccc(Sc2cccc(C3(C(N)=O)CCOCC3)c2)cc1 [PF-4191834] | U2OS | Y |
| C[C@@H](Oc1cc(-n2cnc3ccc(OC4CCN(C)CC4)cc32)sc1C(N)=O)c1ccccc1Cl [GSK-579289A] | U2OS | N |

# input for lookup
Query: Does Growth Rate meet or surpass 0.8 for O=C(N[C@H]1CCCCC/C=C\C2C[C@@]2(C(=O)O)NC(=O)[C@@H]2C[C@@H](Oc3ccncc3)CN2C1=O)OC1CCCC1 (stereo not given in full) [BI 1675] ?
Reply: N

====

For each record, write down the corresponding Growth Rate.
System: Fibroblast
Assay: Incucyte cell viability with human fibroblast; also: unitless GR value; below 1 slowed growth and below 0 cell loss
Type: toxicity, cell-based
Details: 18 h, 10 µM, compound concentration 10 uM, replicate number 1
Give bare numbers.

| molecule | outcomeMeasure | assayResult |
| --- | --- | --- |
| NC(=O)OC[C@H](NC(=O)Cn1nc(-c2ccc(Cl)cc2)n(C[C@H](O)C(F)(F)F)c1=O)c1cccc(C(F)(F)F)c1 | Growth Rate | 0.71 |
| CCCCCN1C(=O)C2(COc3cc4c(cc32)OCO4)c2ccccc21 (centres undefined) | Growth Rate | -0.52 |
| CC(=O)c1c(C)c2cnc(Nc3ccn(C)n3)nc2n(C2CCCC2)c1=O | Growth Rate | 0.8 |
| Cc1n[nH]c2ncc(C(=O)N3CCC[C@H]3c3ccc(Cl)cc3)cc12 | Growth Rate | 0.66 |
| CC(C)(O)c1ccc2c(c1)ncn2-c1cccc(-c2ccccc2C#N)c1 | Growth Rate | 0.64 |

I would be grateful if you could provide Growth Rate for each of the following entries.
1. C[C@@H](c1ccc(F)cc1)n1nnc2cnc3ccc(-c4ccc5ocnc5c4)cc3c21
2. CC(C)(C#N)c1cc(Cn2cncn2)cc(C(C)(C)C#N)c1
3. CC(=O)NCC(=O)N1[C@@H]2CC[C@H]1c1ccc(Nc3ncc(C(F)(F)F)c(NC4CCC4)n3)cc12
4. Fc1ccc(-c2c3cccc(C(F)(F)F)c3nn2Cc2ccc(F)cc2Cl)cc1

Reply:
0.35
0.84
0.52
-0.12

Ref: ChEMBL document CHEMBL5303304
